src = patent US20110286916A1

tgt: T1, human full-length Notch1 with C-terminal FLAG tag, stably expressed on 293 FlpIn (TREx) cells (human, UniProt P46531 19-2555)
T1 construct: tetracycline/doxycycline-induced expression from pcDNA5/FRT/TO-HN1+FLAG; also called hN1; 293_N1
test-method-notes: FACS, phage scFv
quantity-kind: binding result

hN1S3-073 (scFv, V domains shown, phage scFv) VH: QVQLVQSGAEVKKPGASVRISCKTSGFTFTSYFIHWVRQAPGQRPEWMGVINPSRGNADYAPRFRGRVTMTRDKSTHTVYMDLKSLRSDDAAIYYCARDRLGGLLDYYDSSDSSKNFDAFDFWGQGTLVTVSS VL: DIQMTQSPSSLSAFVGDRVTITCRASQGINNYLAWFQQKPGKAPKSLIYAASTLRSGVPPRFSGSGSGTDFTLTISSLQPEDFATYYCQQYDSYPHTFGQGTRLEIK
binds
N1wc145 (scFv, V domains shown, phage scFv) VH: EVQLVESGAEVKKPGASVKVSCKASGYTFTTYGISWVRQAPGQGLEWMGWISTYNGNTKYAQKLQGRVTMTTDTSTSTAYMELRSLRSDDTAVYYCARDARKAFDIWGRGTLVTVSS VL: HVILTQPRSVSGSPGQSITISCTGTSSDVGGYNYVSWYQQHPGKAPKLMIYEGSKRPSGVSNRFSGSKSGNTASLTISGLQAEDEADYYCSSYTTRSTRVFGGGTKLTVL
binds
hN1S3-002 (scFv, V domains shown, phage scFv) VH: GVQLVQSGAEVKKPGASVKVSCKASGYTFTDYYVHWVRQAPGQGPEWMGWINPNNGGTKYAQKFQGRVTMTTDTSTSTAYMELRSLRSDDTALYYCARDLLPYYGDYRADKIDDFDIWGRGTLVTVSS VL: QSVLTQPPSASGTPGQRVTISCSGSSSNIGSNTVNWYQRLPGAAPQLLIYNNDQRPSGIPDRFSGSKSGTSGSLVISGLQSEDEADYYCASWDDSLNGRVFGGGTKLTVL
binds
